- target.system: DRB1*1501 (DR2w2beta-1) (Homo sapiens, UniProt P01903+P01911)
- test.description: biochemical
Where no end group is shown, it is not given here.
assay.metric: IC50 (nM)
Give the value in nM but do not write nM after it.

So for WKHIRLECVLMYKAR [compound 108] , the logged IC50 turned out to be 134

// IC50 lookup, sequence = WKHMRLECAIYYKAR [compound 91] , result: 1390

====

- target.system: DRB1*0301 (DR3) (Homo sapiens, UniProt P01903+P01911, A100K/A102G/A103R/A169T/F55Y/I96L/K41T/L162R/M171V/P40S/Q125H/Q178H/Q39Y/R42S/S66N/T106N/T262R/W38E/Y61H)
- test.description: biochemical
Where no end group is shown, it is not given here.
assay.metric: pIC50
// pIC50 here means minus log10 of the molar concentration (mol/L)

For record WKHMRLECAIYYKAR [compound 91] the listed pIC50 is 6.36

pIC50 measured on NGWFYVEAVIDRQTG [compound 106] = 5.55

Consider WKHIRLECVLMYKAR [compound 108] . Its measured pIC50 is 6.84

Just so you know, measured pIC50 for DWVMAIFGVNPTVAEGF [compound 114] came out at 5.43

====

- target.system: HLA A6802 (Homo sapiens, UniProt P04439, A269V/D140Y/D185E/E176V/E277Q/E87N/F33Y/G231S/I121R/I166T/I218V/L180W/L300P/L318F/N151K/P208A/P217A/Q86R/R138H/R169H/S129P/T345S/V36M)
- test.description: HLA class I competition binding assay using soluble HLA
Where no end group is shown, it is not given here.
Task for the reader: assign each of the following sequences its reported IC50.
Could you give the number and then its unit, please?

Record CLYLHIQSL [compound 6] , field IC50: 1780 nM

Lab note: measured IC50 of TLQEIVLHV [compound 77] was 2460 nM

FIYIPLFVI [compound 52] yielded IC50 of 157 nM

====

- target.system: HLA A0202 (Homo sapiens, UniProt P04439, D140Y/D185E/D98H/E176V/E277Q/G131W/G231S/I119L/I121R/I166T/I218V/L180W/L300P/L318F/N151K/N90K/P208A/P217A/Q67R/Q86G/Q94H/R138H/R169H/T345S)
- test.description: HLA class I competition binding assay using soluble HLA
Where no end group is shown, it is not given here.
Would you mind telling me the reported IC50 of each entry?
Use µM as the unit, but write only the number.

// ILYAHIQCL [compound 27] : IC50 value = 0.0085

Measured IC50 of TLHDIILECV [compound 9] : 0.00054

Item: TLQEIVLHV [compound 77] | IC50: 0.03

sequence FVYIPLFLI [compound 8] , IC50 observed: 0.323

Recorded result, CLYLHIQSL [compound 6] , IC50: 0.045

Lab note: YQFAFKDLCV [compound 76] gave IC50 of 0.0013

====

Would you mind telling me the reported pIC50 of each entry?
- target.system: HLA A2601 (Homo sapiens, UniProt P04439, A114D/A173T/A270S/D101N/D185E/E277Q/E87N/F33Y/G231S/I121R/I218V/K168Q/L180W/L300P/L318F/P208A/P217A/Q86R/Q94H/R138Q/S129P/T187R/T323A/T345S/V100A/V358M)
- test.description: HLA class I competition binding assay using soluble HLA
Where no end group is shown, it is not given here.
Kindly note that pIC50 refers to -log10 of the concentration in mol/L and answer with the value alone.

Memo: LQDKILDHY [compound 67] , reported pIC50: 5.30

# pIC50 of LTDVSIACVY [compound 69] = 5.09

Value of measured pIC50 for the entry ELDPVDLLCY [compound 71] : 5.68

Summary for this sequence, LSQMVQWAY [compound 1] : pIC50 is 5.19

Values compiled from patent US8969542B2.
